- tgt: human recombinant adrenergic α2B receptor (Homo sapiens, UniProt P18089)
- Construct: expressed in transfected cells; host or cells: CHO-K1
- Sequence (P18089 whole entry): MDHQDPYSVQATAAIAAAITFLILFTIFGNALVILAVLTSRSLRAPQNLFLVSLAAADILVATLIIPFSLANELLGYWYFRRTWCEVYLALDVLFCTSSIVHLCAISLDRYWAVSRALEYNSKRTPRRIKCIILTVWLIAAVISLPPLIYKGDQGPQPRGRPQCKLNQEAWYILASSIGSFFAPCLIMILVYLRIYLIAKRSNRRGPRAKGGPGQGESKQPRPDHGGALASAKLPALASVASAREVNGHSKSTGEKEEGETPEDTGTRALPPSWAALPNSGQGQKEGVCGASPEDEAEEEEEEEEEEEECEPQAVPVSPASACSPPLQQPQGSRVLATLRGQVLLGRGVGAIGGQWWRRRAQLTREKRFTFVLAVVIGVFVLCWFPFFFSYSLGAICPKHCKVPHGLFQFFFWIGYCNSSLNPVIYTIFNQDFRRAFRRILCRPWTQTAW
- procedure.text: Radioligand binding, adrenergic α2B ([3H]Rauwolscine)
- condition.details: compound at 0.03 μM; [3H]Rauwolscine; repeat assays, each datapoint shown; 0.03 µM
measured.endpoint: Percentage inhibition of ligand binding, Adrenergic α2B

The cases that follow already have their Percentage inhibition of ligand binding, Adrenergic α2B on record.
* Cc1ccc2c(c1)c1c(n2CC(O)c2ccncc2)CCN2CCCCC12 (single isomer, unassigned) [47c] | 53%
* CN1CCc2c(c3cccc(Br)c3n2CC(O)c2ccncc2)C1 (single isomer, unassigned) [48b] | 86%
* CN1CCc2c(c3ccc(C(F)(F)F)cc3n2CC(O)c2cccnc2)C1 (single isomer, unassigned) [40b] | 29%
* Cc1ccc2c(c1)c1c(n2CC(O)c2cccnc2)CN(C)CC1 (single isomer, unassigned) [43b] | 27%
* Cc1cnc2c(c1)c1c(n2CC(O)c2ccncc2)CCN(C)C1 (single isomer, unassigned) [55a] | 14%

Q. Given Cc1cnc2c(c1)c1c(n2CC(O)c2ccncc2)CCNC1 (centres unmarked) [compound 58] , state its recorded Percentage inhibition of ligand binding, Adrenergic α2B.
A. 26%

Q. Given CC(C)(O)CCN1CCc2c(c3cc(Cl)ccc3n2CC(O)c2ccncc2)C1 (single isomer, unassigned) [11b] , state its recorded Percentage inhibition of ligand binding, Adrenergic α2B.
A. 64%

Q. Given Cc1ccc2c(c1)c1c(n2CC(O)c2ccncc2)CCNC1 (centres unmarked) [compound 39] , state its recorded Percentage inhibition of ligand binding, Adrenergic α2B.
A. 89%

Q. Given Cc1ccc2c(c1)c1c(n2CC(O)c2ccccn2)CN(C)CC1 (single isomer, unassigned) [22b] , state its recorded Percentage inhibition of ligand binding, Adrenergic α2B.
A. 30%

Q. Given CN1CCc2c(c3cccc(Cl)c3n2CC(C)(O)c2cccnc2)C1 (single isomer, unassigned) [57a] , state its recorded Percentage inhibition of ligand binding, Adrenergic α2B.
A. 16%

Q. Given CN1CCc2c(c3cc(C(F)(F)F)ccc3n2CC(O)c2cccnc2)C1 (single isomer, unassigned) [59a] , state its recorded Percentage inhibition of ligand binding, Adrenergic α2B.
A. 15%
